assay: Quantitative High-Throughput drug screen in 47 multiple myeloma cell lines against the NCATS MIPE library collection: Karpas417_ECACC cell viability assay (AID 1918961); settings: Karpas417 myeloma viability, CellTiter-Glo ATP luminescence, 48 h
Inconclusive results are not listed. Activity calls are given as the source filed them. The call rests on the fitted dose curve; in most records, active means well fitted cell-killing curve with a large enough effect; inconclusive means small, poorly fitted or top-dose-only effect, or effect the other way; inactive means no such curve, though single readings can be large or run the other way.
Outcome codes: yes (1) for active, no (0) for inactive

# COMPOUND, GROUP LABEL
records = [
    ("CC(O)(CS(=O)(=O)c1ccc(F)cc1)C(=O)Nc1ccc(C#N)c(C(F)(F)F)c1 (stereo not given)", "yes (1)"),
    ("O=C1CC[C@@]2(O)[C@H]3Cc4ccc(O)c5c4[C@@]2(CCN3CC2CC2)[C@H]1O5", "no (0)"),
    ("N[C@@H](Cc1ccc(N(CCCl)CCCl)cc1)C(=O)O", "yes (1)"),
    ("COC1(CS(=O)c2ccccc2)CCN(CCc2c[nH]c3ccc(F)cc23)CC1 (stereo not given)", "no (0)"),
    ("C[C@@H]1[C@@H](CC(C[C@H]2O[C@@H]3O[C@]4(C)CC[C@@H]5[C@H](C)CC[C@@H]([C@H]2C)[C@@]35OO4)C[S+](=O)([O-])c2ccc(COC(=O)N(C)C)cc2)O[C@@H]2O[C@]3(C)CC[C@H]4[C@H](C)CC[C@@H]1[C@@]24OO3 (stereo not given in full)", "yes (1)"),
]
